System: promoter region of the gene encoding human apoAI
assay-procedure: Activity to enhance the production of human apoAI: apoAI promoter-luciferase reporter assay in HepG2 cells
Assay type: cell-based
recorded-conditions: minimum effective dose: concentration that intensified luciferase activity twice compared to control, 24 hours incubation, 0 to 10 μg/mL, read-out: MED
value-type: EC (2-fold luciferase activity) (µM)
Could you give me the number in µM? Just the number is fine.

Hello, I am looking for reported EC (2-fold luciferase activity) with promoter region of the gene encoding human apoAI for `COc1ccc(-c2nc(-c3ccccc3)no2)cc1` . Could you help?
0.07

Notebook entry, promoter region of the gene encoding human apoAI assay: EC (2-fold luciferase activity) of `c1ccc(-c2nnc(-c3ccccn3)o2)cc1` = ?
0.37

Test system promoter region of the gene encoding human apoAI; read-out EC (2-fold luciferase activity); what value for `Cc1ccc(-c2nnc(-c3ccco3)s2)cc1` ?
0.98

Notebook: pull reported EC (2-fold luciferase activity) for promoter region of the gene encoding human apoAI, entry `CC(C)Oc1cccc(-c2nnc(-c3ccoc3)s2)c1`
0.58

Observed EC (2-fold luciferase activity) on promoter region of the gene encoding human apoAI for `c1ccc(-c2nc(-c3ccc(-c4csnn4)cc3)no2)cc1` , please.
0.18

Tell me reported EC (2-fold luciferase activity) for `COc1ccc(-c2nc(-c3ccccn3)cs2)cc1` , tested with promoter region of the gene encoding human apoAI.
1.2

For the record `CC(C)Oc1cccc(-c2nnc(-c3ccoc3)o2)c1` , what value of EC (2-fold luciferase activity) is listed for promoter region of the gene encoding human apoAI?
1.5

What reported EC (2-fold luciferase activity) corresponds to `COc1cccc(-c2cc(-c3ccoc3)on2)c1` on promoter region of the gene encoding human apoAI?
0.53

Record `COc1ccc(-c2nc(-c3ccccc3)co2)cc1` : what is its EC (2-fold luciferase activity) with promoter region of the gene encoding human apoAI?
0.32

Under promoter region of the gene encoding human apoAI: EC (2-fold luciferase activity) value of `COc1ccc(-c2nc(-c3ccccc3)cs2)cc1` ?
3.7
